Reported growth values follow for various compounds
System: MDA-MB-435 melanoma
Measurement Description: NCI-60 one-dose screen, 48 h (100 = growth as untreated, 0 = no growth, -100 = all killed)
Details: 10 µM unless noted
Procedure: Growth inhibition of the MDA-MB-435 human Melanoma tumor cell line is measured as a screen for anti-cancer activity. Cells are grown in 96 well plates and exposed to the test compound for 48 hours. Compounds are tested at a single concentration, which is 10^-5 M for most compounds. The reported endpoint is percent growth (GI% or GIPRCNT), where numbers from 0 - 100% represent growth inhibition, and numbers from -100% - 0 represent cell death. […]
About 83,000 compounds went through this panel and 20% of them were active in at least one assay; those are over-represented in the sample as a whole.
Number in %, nothing else.

{"Compound": "CN1C(=O)/C(=C/c2ccco2)S/C1=N/c1nccs1", "growth / %": 107}

Query: Look up growth for this compound: COc1ccc(N=Nc2c(N)nn3c(-c4ccc(F)cc4)ccnc23)cc1
Response: 56.2

Query: Could you share which growth value was measured for NS(=O)(=O)c1ccc(N2N=C(c3ccc(NC(=O)Nc4ccccc4)cc3)CC2c2ccc(Br)cc2)cc1 (centres undefined) ?
Response: -93.8

Query: Form field: reported growth of O=C1Nc2cc(-c3ccc(NS(=O)(=O)c4ccc(F)c(Cl)c4)cc3)ccc2/C1=C/c1ccc[nH]1
Response: 55.1
